Biological target: T1, rat VPAC1 receptor (rat, UniProt P30083 31-459)
T1 sequence (looked up): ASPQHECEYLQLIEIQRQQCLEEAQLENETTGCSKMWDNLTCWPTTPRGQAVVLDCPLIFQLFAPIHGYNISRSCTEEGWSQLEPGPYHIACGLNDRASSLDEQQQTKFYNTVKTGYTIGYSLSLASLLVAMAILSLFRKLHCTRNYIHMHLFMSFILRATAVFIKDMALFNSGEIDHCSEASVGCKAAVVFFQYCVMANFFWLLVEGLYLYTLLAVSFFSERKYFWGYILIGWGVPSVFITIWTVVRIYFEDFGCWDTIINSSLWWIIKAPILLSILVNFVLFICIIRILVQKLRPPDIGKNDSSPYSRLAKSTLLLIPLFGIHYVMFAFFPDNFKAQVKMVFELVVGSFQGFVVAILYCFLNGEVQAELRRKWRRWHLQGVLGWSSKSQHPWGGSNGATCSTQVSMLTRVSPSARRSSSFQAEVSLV
Assay: cell-based or functional assay
*1 amine or outer side, *2 acyl side, *3 side chain or, on linkers, in order; H or OH if unused. [ ]: non-standard residue; d: D form. Tyr(OMe) = methoxy tyrosine, COc1ccc(C[C@H](N[*:1])C(=O)[*:2])cc1; Orn = NCCC[C@H](N)C(=O)O; Abu = CC[C@H](N)C(=O)O; Aib = CC(C)(N)C(=O)O
Parameter: Rat VPAC1 Receptor: DiscoveRx: (EC50; nM)
Return type: number; implicit unit nM.

>  <Binder>
HSDAVFTEQYTXLRXQLAXXXYLQXIXXGGPSSGAPPPCC (C6-HSDAVFTEQY(OMe)TOrnLRAibQLAAbuAibOrnYLQAibIOrnOrnGGPSSGAPPPC(PEG30K)C(PEG30K)-NH2) [P570]

>  <Recorded Value>
86.7

$$$$
>  <Binder>
HSDAVFTEQYTXLRXQVAAXXYLXSIXXGGPSSGAPPPS (C6-HSDAVFTEQY(OMe)TOrnLRAibQVAAAibOrnYLK(WPEG40K)SIOrnOrnGGPSSGAPPPS-NH2) [P531]

>  <Recorded Value>
301

$$$$
>  <Binder>
HSDAVFTEQYTXLRXQLAXXXYXQXIXXGGPSSGAPPPCC (C6-HSDAVFTEQY(OMe)TOrnLRAibQLAAbuAibOrnYAibQAibIOrnOrnGGPSSGAPPPC(PEG20K)C(PEG20K)-NH2) [P525]

>  <Recorded Value>
1140

$$$$
>  <Binder>
C6-HSDAVFTEQ[Tyr(OMe)]T[Orn]LRC(PEG 40 kDa)QLA[Abu][Aib][Orn]YLQ[Aib]I[Orn][Orn]GGPSSGAPPPS-NH2 [P547]

>  <Recorded Value>
76.2

$$$$
>  <Binder>
HSDAVFTEQYTXLRXQLAXXXYLQXIXCXGGPSSGAPPPS (C6-HSDAVFTEQY(OMe)TOrnLRAibQLAAbuAibOrnYLQAibIOrnC(PEG40K)OrnGGPSSGAPPPS-NH2) [P537]

>  <Recorded Value>
206

$$$$
>  <Binder>
HSDAVFTEQYTXLRXQVAXXXYLQXIXXGGPSSGAPPPC (C6-HSDAVFTEQY(OMe)TOrnLRAibQVAAbuAibOrnYLQAibIOrnOrnGGPSSGAPPPC(PEG40K)-NH2) [P511]

>  <Recorded Value>
61.9

$$$$
>  <Binder>
HSDAVFTEQYTXLRXQLAXXXYXQSIXXGGPSSGAPPPCC (C6-HSDAVFTEQY(OMe)TOrnLRAibQLAAbuAibOrnYAibQSIOrnOrnGGPSSGAPPPC(PEG30K)C(PEG30K)-NH2) [P602]

>  <Recorded Value>
209

$$$$
>  <Binder>
HSDAVFTEQYTXLRXQVAAXXYLQSIXXCGGPSSGAPPPC (C6-HSDAVFTEQY(OMe)TOrnLRAibQVAAAibOrnYLQSIOrnOrnC(PEG20K)GGPSSGAPPPC(PEG20K)-NH2) [P562]

>  <Recorded Value>
393

$$$$

Consider the record given below.
Rat VPAC1 Receptor: DiscoveRx: (EC50; nM) in this record for HSDAVFTEQYTXLRXQLAXXXYLQSIXXGGPSSGAPPPCC (C6-HSDAVFTEQY(OMe)TOrnLRAibQLAAbuAibOrnY(OMe)LQSIOrnOrnGGPSSGAPPPC(PEG20K)C(PEG20K)-NH2) [P582] : 137
